Target: HDAC6 enzyme (Homo sapiens, UniProt Q9UBN7)
Construct: transducing full length HDAC1 and HDAC6 genes into Sf-9 insect cells; GST; purchased SignalChem; host or cells: Sf-9 insect cells
Sequence (Q9UBN7 whole entry): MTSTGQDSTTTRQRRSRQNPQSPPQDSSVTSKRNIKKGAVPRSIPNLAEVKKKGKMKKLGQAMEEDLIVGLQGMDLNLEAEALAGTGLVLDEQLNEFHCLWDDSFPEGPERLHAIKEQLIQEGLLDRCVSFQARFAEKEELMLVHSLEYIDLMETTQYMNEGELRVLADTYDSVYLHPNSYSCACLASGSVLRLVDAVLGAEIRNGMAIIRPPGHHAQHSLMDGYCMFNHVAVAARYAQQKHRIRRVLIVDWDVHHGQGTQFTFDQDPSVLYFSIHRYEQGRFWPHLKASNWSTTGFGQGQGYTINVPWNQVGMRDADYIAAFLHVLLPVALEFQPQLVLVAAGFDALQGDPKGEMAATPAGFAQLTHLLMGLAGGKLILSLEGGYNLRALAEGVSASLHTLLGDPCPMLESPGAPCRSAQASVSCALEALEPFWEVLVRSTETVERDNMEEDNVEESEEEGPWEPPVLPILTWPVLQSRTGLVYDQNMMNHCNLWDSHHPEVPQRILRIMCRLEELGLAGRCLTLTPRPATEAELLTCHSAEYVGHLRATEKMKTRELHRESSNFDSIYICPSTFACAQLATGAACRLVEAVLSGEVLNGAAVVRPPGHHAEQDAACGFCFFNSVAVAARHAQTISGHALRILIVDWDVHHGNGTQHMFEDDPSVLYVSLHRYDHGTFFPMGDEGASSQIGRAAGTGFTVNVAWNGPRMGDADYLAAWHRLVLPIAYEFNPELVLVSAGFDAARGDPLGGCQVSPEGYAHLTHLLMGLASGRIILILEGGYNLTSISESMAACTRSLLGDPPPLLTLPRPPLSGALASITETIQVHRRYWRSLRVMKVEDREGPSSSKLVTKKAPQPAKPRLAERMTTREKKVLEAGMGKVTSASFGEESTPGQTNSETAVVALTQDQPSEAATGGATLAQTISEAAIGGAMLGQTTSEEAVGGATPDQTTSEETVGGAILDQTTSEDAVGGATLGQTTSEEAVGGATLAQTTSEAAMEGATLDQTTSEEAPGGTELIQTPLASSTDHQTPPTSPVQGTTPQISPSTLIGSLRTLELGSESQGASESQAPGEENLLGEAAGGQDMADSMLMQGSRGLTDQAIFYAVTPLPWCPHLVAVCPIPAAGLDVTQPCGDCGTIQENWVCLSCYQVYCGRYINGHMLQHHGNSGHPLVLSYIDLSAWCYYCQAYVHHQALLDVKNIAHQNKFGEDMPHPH
Experiment: HDAC1/6 Enzyme Inhibitory Assay (HDAC-Glo I/II Assay kit), HDAC6
Format: biochemical
Conditions: 1 μM test compound; wells without enzyme = 100% inhibition; read-out: HDAC6 inhibitory rate (%) (1 μM)
Description: HDAC1/6 Enzyme Inhibitory Assay HDAC1 enzyme and HDAC6 enzyme each prepared by transducing full length HDAC1 and HDAC6 genes into Sf-9 insect cells and purifying by GST affinity column were purchased from SignalChem. Using these enzymes, HDAC1 and/or HDAC6 enzyme inhibitory activities of the compound of the present invention were evaluated. […] After reacting at room temperature for 20 min, luminescence level was measured using plate reader Envision (PerkinElmer). […]
quantity: inhibition at 1 µM (%)

- compound: "O=C1C[C@@H](C(=O)N[C@@H]2CCCC[C@H]2N2Cc3ccc(-c4noc(C(F)(F)F)n4)cc3C2=O)N1"
  study-system: "HDAC6 enzyme (Homo sapiens, UniProt Q9UBN7)"
  measurement: 95
- compound: "O=C1c2cc(-c3noc(C(F)(F)F)n3)ccc2CN1[C@H]1C[C@@H]1c1ccccc1 (relative stereo)"
  study-system: "HDAC6 enzyme (Homo sapiens, UniProt Q9UBN7)"
  measurement: 90

a. CC(=O)N1CCC(N2Cc3ncc(-c4noc(C(F)(F)F)n4)cc3C2=O)CC1
b. N[C@H]1CCC[C@@H]1N1Cc2ccc(-c3noc(C(F)(F)F)n3)cc2C1=O
Consider a and b . Which of these has its inhibition at 1 µM at a higher number? Pick one and reply with its label.
a
(a: 90%, b: -4%)

---

biological target: HDAC6 enzyme (Homo sapiens, UniProt Q9UBN7); construct: transducing full length HDAC1 and HDAC6 genes into Sf-9 insect cells; GST; purchased SignalChem; host or cells: Sf-9 insect cells; experiment: HDAC1/6 Enzyme Inhibitory Assay (HDAC-Glo I/II Assay kit), HDAC6; format: biochemical; settings: 1 μM test compound; wells without enzyme = 100% inhibition; read-out: HDAC6 inhibitory rate (%) (1 μM)
quantity: inhibition at 1 µM (%)

- compound: "Cc1ccc([C@@H]2CNCC[C@H]2N2Cc3ccc(-c4noc(C(F)(F)F)n4)cc3C2=O)cc1 (relative stereo)"
  unit-name: "%"
  inhibition at 1 µM: 95
- compound: "O=C(CN1CCCC1=O)N[C@@H]1CCCC[C@H]1N1Cc2ccc(-c3noc(C(F)(F)F)n3)cc2C1=O"
  unit-name: "%"
  inhibition at 1 µM: 89
- compound: "CC(=O)N1CC[C@H](N2Cc3cc(-c4noc(C(F)(F)F)n4)ccc3C2=O)[C@H](c2ccccc2)C1 (relative stereo)"
  unit-name: "%"
  inhibition at 1 µM: 76
- compound: "O=C(c1ccccc1)N1CCC(N2Cc3ncc(-c4noc(C(F)(F)F)n4)cc3C2=O)C1 (stereo not shown)"
  unit-name: "%"
  inhibition at 1 µM: 96

---

molecular target: HDAC1 enzyme (Homo sapiens, UniProt Q13547); construct: transducing full length HDAC1 and HDAC6 genes into Sf-9 insect cells; GST; purchased SignalChem; host or cells: Sf-9 insect cells; test: HDAC1/6 Enzyme Inhibitory Assay (HDAC-Glo I/II Assay kit), HDAC1; assay type: biochemical; conditions: 1 μM test compound; wells without enzyme = 100% inhibition; 1 µM
Sequence (Q13547 whole entry): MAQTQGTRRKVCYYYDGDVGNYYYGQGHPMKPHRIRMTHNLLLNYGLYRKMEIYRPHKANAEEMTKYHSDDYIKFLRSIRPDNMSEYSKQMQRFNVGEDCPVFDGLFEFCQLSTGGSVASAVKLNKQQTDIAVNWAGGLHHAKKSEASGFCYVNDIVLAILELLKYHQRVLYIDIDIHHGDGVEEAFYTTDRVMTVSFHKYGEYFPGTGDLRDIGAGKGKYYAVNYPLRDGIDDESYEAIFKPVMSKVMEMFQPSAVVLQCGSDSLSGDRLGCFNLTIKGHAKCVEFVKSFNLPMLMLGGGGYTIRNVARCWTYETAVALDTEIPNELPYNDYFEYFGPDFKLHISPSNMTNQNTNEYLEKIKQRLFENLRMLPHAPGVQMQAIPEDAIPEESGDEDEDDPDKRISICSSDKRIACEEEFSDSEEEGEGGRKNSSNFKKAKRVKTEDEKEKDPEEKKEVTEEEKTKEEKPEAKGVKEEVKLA
quantity: HDAC1 inhibitory rate (%) (1 μM)

# example entries with known answers
- compound: "CC(CO)(CCl)C(=O)N[C@@H]1CCCC[C@H]1N1Cc2ccc(-c3noc(C(F)(F)F)n3)cc2C1=O (relative stereo) [Example 204]"
  unit-name: "%"
  HDAC1 inhibitory rate (%) (1 μM): 7
- compound: "O=C(N[C@H]1CCOC[C@H]1N1Cc2ccc(-c3noc(C(F)(F)F)n3)cc2C1=O)C1CC1(F)F (single isomer, unassigned) [Example 214]"
  unit-name: "%"
  HDAC1 inhibitory rate (%) (1 μM): 68

I. O=C1CCCN1[C@@H]1CCOC[C@H]1N1Cc2ccc(-c3noc(C(F)(F)F)n3)cc2C1=O [Example 178]
II. O=C1c2cc(-c3noc(C(F)(F)F)n3)ccc2CN1[C@@H]1CCOC[C@H]1c1ccccc1 (relative stereo) [Example 5]
III. O=C1CCCN1[C@@H]1CCOC[C@H]1N1Cc2ccc(-c3noc(C(F)(F)F)n3)cc2C1=O [Example 183]
Please give the order of these compounds when sorted by HDAC1 inhibitory rate (%) (1 μM), largest value leading. Response field: labels, in requested order.
II, I, III
(II: 78%, I: 8%, III: 1%)
